Target: T1, human galectin-10-His (recombinant human galectin-10 with TEV-cleavable N-terminal His-tag) (human)
T1 construct: SEC-MALLS: dimer in solution; also called Gal10-His; humanGal10-His
T1 chain: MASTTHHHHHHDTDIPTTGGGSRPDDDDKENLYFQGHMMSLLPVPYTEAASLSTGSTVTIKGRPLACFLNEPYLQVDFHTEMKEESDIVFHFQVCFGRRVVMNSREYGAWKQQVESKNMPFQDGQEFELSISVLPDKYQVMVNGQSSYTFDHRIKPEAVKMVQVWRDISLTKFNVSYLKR
Experiment: SPR Biacore T3000, scFv-hFc captured by anti-human Fc, galectin-10-His as analyte
pKd: −log10 of the molar value.

binder: 3A03 scFv-human Fc (Fc fusion, about 100 kDa on SDS-PAGE; also called 3A03 ScFv-hFc; not shown: CH2-CH3 constant domains of human IgG1 (vector pUPEX50)) scFv: QVQLVESGGGLVQPGGSLRLSCATSGFTFSVYAMSWVRQAPGKGLEWVADINTSGDSTTYADSVKGRFTISRDNAKNTLYLQMNSLKPEDTAVYYCANRYTQERGQGTQVTVSSGGGGSGGGGSGGGGSDVVLTQTPGSLSVVPGEAASISCKPGRTLVHTDGRTYLYWLQQKPGQRPQLLIYQVSNRGSGVPDRFTGSGSGTDFTLKISGVKAEDAGVYYCAQATYYPLTFGSGTRLEIK
pKd: 8.81

binder: 2C07 scFv-human Fc (Fc fusion, about 100 kDa on SDS-PAGE; also called 2C07 ScFv-hFc; not shown: CH2-CH3 constant domains of human IgG1 (vector pUPEX50)) scFv: ELQLVESGGGLVQPGGSLRLSCAASGFTFSSYAMSWVRQAPGKGLEWVSNINSGGGSTGYADSVKGRFTISRDNAKNTLYLQMNSLKPEDMAVYYCAKYLRTYYPNAAFGMDYWGKGTLVTVSSGGGGSGGGGSGGGGSQAVLTQPSAVSVSLGQTARITCQGGNFGRYYASWYQQKPGQAPVLVIYRDSERPSGIPERFSGSSSGDTATLTISGAQAEDEADYYCQSGRSSDNAVFGGGTHLTGL
pKd: 9.17

binder: 2E11 scFv-human Fc (Fc fusion, about 100 kDa on SDS-PAGE; also called 2E11 ScFv-hFc; not shown: CH2-CH3 constant domains of human IgG1 (vector pUPEX50)) scFv: EVQLVESGGGLVQPGGSLRLSCAASGFTFSSYAMSWVRQAPGKGLEWVSPINSGSDSASYVDSVKGRFTISRDNAKNTLYLQMNSLKPEDTAVYYCAKARTSVVAGGMDYWGKGTLVTVSSGGGGSGGGGSGGGGSQSALTQPSAVSVSLGQTARITCQGGKFGSYYVSWYQQKPGQAPVMVIYKDNERPSGIPERFSGSSSGSTSTLTISGAQAEDEGTYYCQSGSSSDNIVFGGGTELTVF
pKd: 8.94

binder: 4H10 scFv-human Fc (Fc fusion, about 100 kDa on SDS-PAGE; also called 4H10 ScFv-hFc; not shown: CH2-CH3 constant domains of human IgG1 (vector pUPEX50)) scFv: QVQLVESGGGLVQPGGSLRLSCAASGFTFDDYAMSWVRQAPGKGLEWVSAISWNGGSTYYAESMKGRFTISRDNAKNTLYLQMNSLKSEDAAVYYCAKDLSASGSYYHTFGSWGQGTQVTVSSGGGGSGGGGSGGGGSQAGLTQPPSVAGTLGKTVTISCAGTSSDVGYGDYVSWYQHIPGTAPKLLIYKVKTRASGIPDRFSGSKSGNTASLTISGLQSGDESDYYCASYKNGGTAVFGGGTHLTVL
pKd: 8.81

binder: 6F11 scFv-human Fc (Fc fusion, about 100 kDa on SDS-PAGE; also called 6F11 ScFv-hFc; not shown: CH2-CH3 constant domains of human IgG1 (vector pUPEX50)) scFv: QVQRQESGPGLVKPSQTLSVTCTVSGGSITTGPYSWSWIRQPPGKGLEWIGYIGYSGSTYYSPSLKSRTSISRDTSNNQFSLQLSSVTPEDTAVYYCARSRSSPTTFGMDYWGKGTLVTVSSGGGGSGGGGSGGGGSSSALTQPSAVSVSLGQTARITCQGGDFGRYYVAWYTQKPGQAPVLVIYQDSERPSGIPERFSGSSSGDTATLTISGAQAEDEAEYYCQSGISSDNIVFGGGTHLTVL
pKd: 8.53
